Data provenance: patent US11685747B2

- target or test system: Mcl-1/Bak protein-protein interactions (Homo sapiens, UniProt Q07820)
- Sequence (Q07820 whole entry): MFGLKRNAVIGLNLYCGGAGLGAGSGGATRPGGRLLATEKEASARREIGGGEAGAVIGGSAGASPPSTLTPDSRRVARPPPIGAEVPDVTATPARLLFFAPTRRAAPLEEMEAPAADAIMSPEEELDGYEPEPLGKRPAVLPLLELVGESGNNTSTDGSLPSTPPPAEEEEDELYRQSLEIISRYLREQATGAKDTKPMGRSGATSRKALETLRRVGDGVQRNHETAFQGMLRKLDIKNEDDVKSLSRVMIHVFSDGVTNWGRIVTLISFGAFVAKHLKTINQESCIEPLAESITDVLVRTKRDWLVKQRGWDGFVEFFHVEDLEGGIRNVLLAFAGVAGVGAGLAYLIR
- assay remarks: Cell-based split luciferase complementation assay
- study conditions: HEK 293 M cells, serum-free, 4 h
pIC50: −log10 of the molar value.
Each item that follows carries a reported pIC50.

compound | pIC50
C[C@H]1CCC[C@H](O)[C@@H]2CC[C@H]2CN2C[C@@]3(CCCc4cc(Cl)ccc43)COc3ccc(cc32)C(=O)NS(=O)(=O)C1 (single isomer, unassigned) [Example 38] | 5.98
COCCO[C@H]1/C=C/C[C@H](C)[C@@H](C)S(=O)(=O)NC(=O)c2ccc3c(c2)N(C[C@@H]2CC[C@H]21)C[C@@]1(CCCc2cc(Cl)ccc21)CO3 [Example 74] | 6.56
CC[C@@H]1[C@@H](C)C/C=C/[C@H](OC)[C@@H]2CC[C@H]2CN2C[C@@]3(CCCc4cc(Cl)ccc43)COc3ccc(cc32)C(=O)NS1(=O)=O [Example 25] | 7.11
